Experiment: Pharmacokinetic study in rat
Format: in vivo, Sprague Dawley rat
Details: male, Sprague Dawley, plasma, PO 5 mg/kg, 10% DMSO/60% PEG400/30% Water, Solution
Endpoint Name: bioavailability (%)
I only need the number, in %, no unit after it.

Lookup: Tell us which bioavailability value is on record for Cc1c(-c2cc3cc(NC(=O)O[C@H]4C[C@H](C#N)C4)ncc3c(N)c2F)cnc2c1NCCO2 [Compound 484b]
Found: 16

Lookup: Output measured bioavailability for this item: Cc1c(-c2cc3cc(NC(=O)N4CC(C)(F)C4)ncc3c(N)c2F)cnc2c1NCCO2 [Compound 755]
Found: 4

###

Biological target: HPK full length, T165E S171E (Homo sapiens (Human), UniProt Q92918, S171E/T165E)
Sequence (Q92918 whole entry T165E/S171E, looked up): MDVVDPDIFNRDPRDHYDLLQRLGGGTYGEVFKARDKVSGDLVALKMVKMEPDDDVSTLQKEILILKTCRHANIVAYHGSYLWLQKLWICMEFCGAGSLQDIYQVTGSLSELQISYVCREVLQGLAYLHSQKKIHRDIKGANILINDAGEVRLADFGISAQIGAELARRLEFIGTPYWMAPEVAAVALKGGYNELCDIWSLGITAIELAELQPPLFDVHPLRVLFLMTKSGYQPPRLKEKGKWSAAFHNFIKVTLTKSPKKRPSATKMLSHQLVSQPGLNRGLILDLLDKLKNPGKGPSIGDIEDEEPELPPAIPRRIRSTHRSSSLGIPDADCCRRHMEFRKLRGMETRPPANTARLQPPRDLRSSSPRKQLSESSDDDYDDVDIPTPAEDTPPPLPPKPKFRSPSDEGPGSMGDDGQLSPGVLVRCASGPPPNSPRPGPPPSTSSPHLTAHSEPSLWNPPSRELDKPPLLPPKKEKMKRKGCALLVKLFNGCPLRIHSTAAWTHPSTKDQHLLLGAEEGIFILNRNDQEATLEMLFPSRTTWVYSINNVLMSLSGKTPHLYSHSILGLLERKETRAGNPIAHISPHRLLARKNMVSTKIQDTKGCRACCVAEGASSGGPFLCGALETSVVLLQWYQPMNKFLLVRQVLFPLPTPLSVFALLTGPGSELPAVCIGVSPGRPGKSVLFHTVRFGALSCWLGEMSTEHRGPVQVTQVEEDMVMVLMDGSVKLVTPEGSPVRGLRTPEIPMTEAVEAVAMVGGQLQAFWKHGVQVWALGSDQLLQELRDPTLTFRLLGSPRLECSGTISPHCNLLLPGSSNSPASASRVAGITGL
Experiment: HPK1-FL HTRF enzymatic assay ("HTRF")
Format: biochemical
Settings: ATP 1 mM, read-out: HPK1 Ki
Items are presented alongside their recorded log10 Ki.
Answers are given as log10 of Ki in nM.

Before answering, review these 5 worked examples.
[
  {
    "Compound": "Cc1c(-c2cc3cc(NC(=O)OC4CCOCC4)ncc3c(N)c2F)cnc2c1NCCC2O (stereo not drawn) [Compound 413]",
    "Measured On": "HPK full length, T165E S171E (Homo sapiens (Human), UniProt Q92918, S171E/T165E)",
    "log10 Ki": -0.19
  },
  {
    "Compound": "CNc1cncc(-c2cc3cc(NC(=O)O[C@H]4C[C@](C)(O)C4)ncc3c(N)c2F)c1C [Compound 527a]",
    "Measured On": "HPK full length, T165E S171E (Homo sapiens (Human), UniProt Q92918, S171E/T165E)",
    "log10 Ki": -0.27
  },
  {
    "Compound": "Cc1c(-c2cc3cc(NC(=O)O[C@@H]4COC[C@H]4C)ncc3c(N)c2F)cnc2c1NCCO2 (racemic) [Compound 441ab]",
    "Measured On": "HPK full length, T165E S171E (Homo sapiens (Human), UniProt Q92918, S171E/T165E)",
    "log10 Ki": -1.43
  },
  {
    "Compound": "Cc1c(-c2cc3cc(NC(=O)OC4CN(C(=O)[C@H]5C[C@@H]5F)C4)ncc3c(N)c2F)cnc2c1NCCC2 (single isomer, unassigned) [Compound 531a]",
    "Measured On": "HPK full length, T165E S171E (Homo sapiens (Human), UniProt Q92918, S171E/T165E)",
    "log10 Ki": -1.26
  },
  {
    "Compound": "Cc1c(-c2cc3cc(NC(=O)O[C@@H]4CCOC4)ncc3c(N)c2F)cnc2c1C(C#N)CCO2 (stereo partly drawn) [Compound 562a]",
    "Measured On": "HPK full length, T165E S171E (Homo sapiens (Human), UniProt Q92918, S171E/T165E)",
    "log10 Ki": -1.17
  }
]

Lookup: Determine its reported log10 Ki: Cc1c(-c2cc3cc(NC(=O)O[C@H]4CC[C@@H]4C)ncc3c(N)c2F)cnc2c1NCCO2 [Compound 559b]
Found: -0.85

Lookup: Return log10 Ki for the following compound: Cc1c(-c2cc3cc(NC(=O)O[C@H]4CO[C@@H]5OCC[C@@H]54)ncc3c(N)c2F)cnc2c1NCCO2 (single isomer, unassigned) [Compound 568a]
Found: -0.73

Lookup: Assign log10 Ki to the following record: Cc1c(-c2cc3cc(NC(=O)O[C@H]4CC(=O)N(C(C)C)C4)ncc3c(N)c2F)cnc2c1NCCO2 (single isomer, unassigned) [Compound 479a]
Found: -1.68

Lookup: // fetch log10 Ki given entry Cc1c(-c2cc3cc(NC(=O)O[C@@H]4CCC(=O)N(C)C4)ncc3c(N)c2F)cnc2c1NCCO2 [Compound 409b]
Found: -1.32

Lookup: Answer with the recorded log10 Ki for the compound listed here: Cc1c(-c2cc3cc(NC(=O)O[C@H]4CN(C)C(=O)C4(C)C)ncc3c(N)c2F)cnc2c1NCCO2 (single isomer, unassigned) [Compound 480b]
Found: -0.55

###

Target: HPK full length, T165E S171E (Homo sapiens (Human), UniProt Q92918, S171E/T165E)
Test: HPK1-FL HTRF enzymatic assay ("HTRF")
Assay type: biochemical
Details: ATP 1 mM, read-out: HPK1 Ki
Listed here are molecules together with their documented pKi.
Formally, pKi is defined as -log10 of the concentration c, with c in mol/L.

[
  {
    "Molecule": "CNc1cncc(-c2cc3cc(NC(=O)O[C@H]4C[C@@](C)(O)C4)ncc3c(N)c2F)c1C [Compound 527b]",
    "pKi": 9.67
  },
  {
    "Molecule": "Cc1c(-c2cc3cc(NC(=O)O[C@H]4COC[C@H]4C)ncc3c(N)c2F)cnc2c1NCCO2 (single isomer, unassigned) [Compound 441c]",
    "pKi": 9.80
  },
  {
    "Molecule": "Cc1c(-c2cc3cc(NC(=O)O[C@H]4C[C@H]([C@H](C)O)C4)ncc3c(N)c2F)cnc2c1NCCO2 (single isomer, unassigned) [Compound 573b]",
    "pKi": 10.72
  }
]

Continue with the next molecule.
Lookup: Find the measured pKi of Cc1c(-c2cc3cc(NC(=O)O[C@H]4C[C@@](C)(O)[C@H]4C)ncc3c(N)c2F)cnc2c1NCCO2 [Compound 526b] and report it.
Found: 10.80

###

Experiment: Pharmacokinetic study in rat
Type: in vivo, Sprague Dawley rat
Details: male, Sprague Dawley, plasma, PO 2 mg/kg, 10/90 DMSO/MCT, Solution
Endpoint Name: bioavailability (%)
Response body: numeric value in %, unit text excluded.

Lookup: Answer with reported bioavailability of Cc1c(-c2cc3cc(NC(=O)O[C@H]4COC[C@@H]4C)ncc3c(N)c2F)cnc2c1NCCO2 (single isomer, unassigned) [Compound 441b]
Found: 30

###

In this section, each of the compounds is paired with its reported Ki.
Biological target: HPK full length, T165E S171E (Homo sapiens (Human), UniProt Q92918, S171E/T165E)
Test: HPK1-FL HTRF enzymatic assay ("HTRF")
Assay type: biochemical
Details: ATP 1 mM, read-out: HPK1 Ki

Worked cases, answers included:
[
  {
    "Compound": "CO[C@H]1COC[C@@H]1OC(=O)Nc1cc2cc(-c3cnc4c(c3C)NCCO4)c(F)c(N)c2cn1 (single isomer, unassigned) [Compound 546a]",
    "Ki": "< 0.013 nM"
  },
  {
    "Compound": "Cc1c(-c2cc3cc(NC(=O)O[C@H]4C[C@H](C(C)(C)O)C4)ncc3c(N)c2F)cnc2c1NCCO2 [Compound 574a]",
    "Ki": "0.02 nM"
  }
]

Lookup: Assign Ki to the following record: Cc1c(-c2cc3cc(NC(=O)N[C@@H]4COC[C@@H]4F)ncc3c(N)c2F)cnc2c1NCCO2 (single isomer, unassigned) [Compound 724b]
Found: 0.019 nM

Lookup: Please give measured Ki of the following entry: Cc1c(-c2cc3cc(NC(=O)O[C@H]4C[C@@H]([C@@H](C)O)C4)ncc3c(N)c2F)cnc2c1NCCO2 (single isomer, unassigned) [Compound 573d]
Found: < 0.013 nM

Lookup: Give recorded Ki. Cc1c(-c2cc3cc(NC(=O)O[C@H]4COC[C@@H]4C)ncc3c(N)c2F)cnc2c1NCCO2 (single isomer, unassigned) [Compound 441b]
Found: < 0.013 nM

Lookup: Note down Ki recorded for Cc1c(-c2cc3cc(NC(=O)NC4CCCC4)ncc3c(N)c2F)cnc2c1NCCO2 [Compound 706]
Found: < 0.013 nM

###

Biological target: HPK full length, T165E S171E (Homo sapiens (Human), UniProt Q92918, S171E/T165E)
Test: HPK1-FL HTRF enzymatic assay ("HTRF")
Assay type: biochemical
Settings: ATP 1 mM, read-out: HPK1 Ki
Endpoint Name: Ki (nM)
Just the number please, in nM, no unit attached.

Lookup: Complete the entry with Ki for Cc1c(-c2cc3cc(NC(=O)O[C@H]4CN(C)C[C@H]4C)ncc3c(N)c2F)cnc2c1NCCO2 (single isomer, unassigned) [Compound 442b]
Found: 0.201

Lookup: Note Ki for the compound shown: CC(=O)N[C@@H]1CCCC[C@H]1OC(=O)Nc1cc2cc(-c3cnc4c(c3C)NCCO4)c(F)c(N)c2cn1 (single isomer, unassigned) [Compound 414b]
Found: 21

###

Molecular target: HPK full length, T165E S171E (Homo sapiens (Human), UniProt Q92918, S171E/T165E)
Test: HPK1-FL HTRF enzymatic assay ("HTRF")
Format: biochemical
Details: HPK1 Ki, ATP 1 mM
Counter-ions that a name gives are not always drawn.
Endpoint Name: pKi
Reminder that pKi is minus the log10 of a molar concentration.

[
  {
    "Compound": "Cc1c(-c2cc3cc(NC(=O)O[C@@H]4CCOC4)ncc3c(N)c2F)cnc2c1[C@@H](O)CC2 [Compound 548a]",
    "pKi": 8.77
  }
]

Continue with the compound presented below.
Lookup: Consider the compound Cc1c(-c2cc3cc(NC(=O)O[C@@H]4CC[C@H]4O)ncc3c(N)c2F)cnc2c1NCCO2 [Compound 542d, hydrochloride] . State its measured pKi.
Found: 10.85
